# PROTOCOL SUMMARY: NCI Yeast Anticancer Drug Screen. Data for the CLN2oe strain (AID 163);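 further: 0% = growth of vehicle-only control cultures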
# ASSAY CONTEXT: S. cerevisiae CLN2oe strain, at 1.2 µM, hits give high values
Compounds without any hit were thinned out: in the full panel of roughly 79,000, 15% have a hit.
Hi there, I'd appreciate the recorded growth inhibition for every entry that follows.
Express it in %; write the number only.

# input Note down growth inhibition recorded for OC1(c2ccccc2)C2CC=CC2C1(c1ccccc1)c1ccccc1 (centres undefined)
# output 2

# input Note down growth inhibition recorded for `Cc1cc2nc3ccccc3n2c2ccccc12`
# output -32

# input Note down growth inhibition recorded for `CN(C)CCCn1c2c3ccccc3ccc2c2oc(=O)c3ccccc3c21`
# output 3

# input Note down growth inhibition recorded for COc1ccc(C(C)c2cc3c(cc2OCC(C)=O)OCO3)cc1 (centres undefined)
# output -4

# input Note down growth inhibition recorded for `C[n+]1c(-c2ccc(/C=N/NC(=O)c3ccc(C(=O)N/N=C/c4ccc(-c5cn6ccccc6[n+]5C)cc4)cc3)cc2)cn2ccccc21`
# output -2

# input Note down growth inhibition recorded for CCCCCCCSCC1C(=O)C23C(O)C1CCC2C12COC3(O)C(O)C1C(C)(C)CCC2O (centres undefined)
# output 19

# input Note down growth inhibition recorded for CC(C)C(=O)CC(Sc1ccc(N)cc1)c1ccccc1 (centres undefined)
# output -2

# input Note down growth inhibition recorded for CCC(=O)C1=C(O)c2cc(OC)ccc2CC1C(=O)OC (centres undefined)
# output -7

# input Note down growth inhibition recorded for `C/C(=N\Sc1ccccc1)c1ccccc1O`
# output 2

# input Note down growth inhibition recorded for `O=C(CCCN1CCC(Nc2ccc(F)cc2)(c2nnnn2C2CCCCC2)CC1)c1ccc(F)cc1`
# output -8

# input Note down growth inhibition recorded for CC(/C=C/c1ccc([N+](=O)[O-])o1)=N/N1CC(CN2CCOCC2)OC1=O (centres undefined)
# output -9

# input Note down growth inhibition recorded for `CCCNCC(=O)O[C@]1(CC)C(=O)OCc2c1cc1n(c2=O)Cc2cc3ccccc3nc2-1`
# output 31

# input Note down growth inhibition recorded for CC1=CN2C(c3ccccc3)=NON(c3ccc(C)cn3)C2C=C1 (centres undefined)
# output 2

# input Note down growth inhibition recorded for `O=Cc1ccccc1C=O`
# output 4

# input Note down growth inhibition recorded for `CCCCCCCCCC(=O)N(CCC)CCC`
# output 3

# input Note down growth inhibition recorded for `CC1(C)CC(=O)C(C(=O)Nc2cccs2)=C(O)C1`
# output 15

# input Note down growth inhibition recorded for `NC(=O)NC1C(c2ccccc2)=C1c1ccccc1`
# output -3

# input Note down growth inhibition recorded for N#CCCC1C(C#N)C2(Cl)CC1(Cl)C(Cl)=C2Cl (centres undefined)
# output -28

# input Note down growth inhibition recorded for `O=C(/C(=C/c1ccc(O)cc1)c1ccccc1)c1ccccc1`
# output 8

# input Note down growth inhibition recorded for `c1cc(-c2sc(-c3ccncc3)c(-c3ccncc3)c2-c2ccncc2)ccn1`
# output -7

# input Note down growth inhibition recorded for `CC(C)(C)c1ccc2c(c1)C(=O)c1ccccc1C2=O`
# output -11

# input Note down growth inhibition recorded for `O=C1c2ccccc2-c2ccc(N=Cc3ccccc3)cc21`
# output -7

# input Note down growth inhibition recorded for `Cc1c(Cl)c(C)c(Cl)c(O)c1Cl`
# output 8

# input Note down growth inhibition recorded for O=C1CCC(Cc2ccccc2)CN1 (centres undefined)
# output -8
